MEASURED ON: T1, human CD71 extracellular domain (human, UniProt P02786 89-760)
T1 construct: also called hCD71; human CD71-ECD
METHOD DESCRIPTION: primary ELISA, ratio of signal to HSA control
OBSERVED PROPERTY: hCD71:HSA

CD71-binding FN3 domain of SEQ ID NO: 230 (designed binder) MSLPAPKNLIVSRVTEDSARLSWTAPDAAFDSLEIGYFENLYLGEAIVLTVPGSERSYDLTGLKPGTEYWVQIGGVKGGNWSAPLSAIFTT :: 151
CD71-binding FN3 domain of SEQ ID NO: 233 (designed binder) MSLPAPKNLVVSRVTEDSARLSWTAPDAAFDSFFIGYLEPQPPGEAIHLSVPGSERSYDLTGLKPGTEYWVQIGGVKGGNWSAPLSAIFTT :: 202
CD71-binding FN3 domain of SEQ ID NO: 229 (designed binder) MSLPAPKNLVVSRVTEDSARLSWTAPDAAFDSFSIMYAEQKVNGEAIVLTVPGSERSYDLTGLKPGTEYLVLIWGVKGGGRSLPLSAIFTT :: 90
CD71-binding FN3 domain of SEQ ID NO: 224 (designed binder) MSLPAPKNLVVSRVTEDSARLSWTAPDAAFDSFEIGYWENAYKGEAIVLTVPGSERSYDLTGLKPGTEYVVFIGGVKGGGWSGPLSAIFTT :: 74
CD71-binding FN3 domain of SEQ ID NO: 226 (designed binder) MSLPAPKNLVISRVTEDSARLSWTAPDAAFDSFEIGYFENLYLGEAIVLTVPGSERSYDLTGLKPGTEYWVAIGGVKGGLWSLPLSAIFTT :: 20

[P] CD71-binding FN3 domain of SEQ ID NO: 222 (designed binder) MSLPAPKNLVVSRVTEDSARLSWTAPDAAFDSFFIGYLEPQPPGEAITLYVPGSERSYDLTGLKPGTEYNVTIQGVKGGFPSGPLIASFTT
[Q] CD71-binding FN3 domain of SEQ ID NO: 231 (designed binder) MSLPAPKNLVVSRVTEDSARLSWTAPDAAFDSFFIGYLEPQPPGEAIHLFVPGSERSYDLTGLKPGTEYNVTIQGVKGGFPSEPLIANSTT
**Q:** Param metric = hCD71:HSA; output whichever of P , Q has the minimum value. Select an item and report its label.
**A:** Q
(Q: 56, P: 215)

[a] CD71-binding FN3 domain of SEQ ID NO: 225 (designed binder) MSLPAPKNLVVSRVTEDSARLSWTAPDAAFDSFEIGYFENLYLGEAIVLTVPGSERSYDLTGLKPGTEYWVQIGGVKGGNWSAPLSAIFTT
[b] CD71-binding FN3 domain of SEQ ID NO: 223 (designed binder) MSLPAPKNLVVSRVTEDSARLSWTAPDAAFDSFEIAYFERTWFGEAIVLTVPGSERSYDLTGLKPGTEYWVAIGGVKGGLWSLPLSVIFTT
**Q:** Which has the higher hCD71:HSA, a or b ? Select an item and report its label.
**A:** a
